pKi: −log10 of the molar value.
Assembled from different publications: pKi for Metabotropic glutamate receptor 5 (Homo sapiens).
Property Name: pKi

smiles_string=COCCn1cc(C#Cc2ccnc(C)c2)nc1C property_name=pKi test_value=6.91
smiles_string=Clc1cc(Nc2ncc(-c3cncnc3)c3cccnc23)ccn1 property_name=pKi test_value=7.39
smiles_string=Cc1nc2c(Nc3ccn(C)n3)ncc(-c3cccnc3)c2s1 property_name=pKi test_value=6.78
smiles_string=CNC(=O)Cn1ccc(-n2cc(C#Cc3cccc(C)c3)nc2C)cc1=O property_name=pKi test_value=6.10
smiles_string=COCCn1ncc(-n2cc(C#Cc3cccc(C)c3)nc2C)cc1=O property_name=pKi test_value=6.88
smiles_string=Fc1ccc(Nc2ncc(-c3cncnc3)c3cccnc23)nc1 property_name=pKi test_value=7.36
smiles_string=Cc1ccc(Nc2cccc(F)c2)c(C(=O)Nc2ccc(F)c(C)n2)n1 property_name=pKi test_value=7.26
smiles_string=Cc1nc(C#Cc2ccnc(Cl)c2)cn1-c1cc(=O)n(C)cn1 property_name=pKi test_value=6.56
smiles_string=Cc1nc(C#Cc2ccnc(Cl)c2)c(C)n1-c1ccn(C)c(=O)c1 property_name=pKi test_value=6.76
smiles_string=Cc1cc(C#N)cc(C(=O)Nc2ccc(F)c(Cl)c2)n1 property_name=pKi test_value=7.57
smiles_string=Cc1ccnc(-n2cc(C#Cc3ccnc(Cl)c3)nc2C)n1 property_name=pKi test_value=7.40
smiles_string=Cc1nc(Nc2ncc(-c3ccnc(Cl)c3)c3sc(C)nc23)cs1 property_name=pKi test_value=7.35
smiles_string=CCN(C(=O)c1ccc(C#Cc2cccc(Cl)c2)cn1)C(C)(C)C property_name=pKi test_value=7.62
smiles_string=Cc1cc(-n2cc(C#Cc3cccc(Cl)c3)nc2C)cnn1 property_name=pKi test_value=6.80

---

pKi: −log10 of the molar value.
Assembled from different publications: pKi for Metabotropic glutamate receptor 5 (Homo sapiens, UniProt P41594).
Please map values of pKi to classes as shown: interval 1 (below 7), interval 2 (7 to below 8), interval 3 (8 or more)

smiles_string=Cc1csc(Nc2ncc(-c3cncc(C(F)(F)F)n3)c3ccc(C)nc23)n1 group_label="interval 2"
smiles_string=Cc1csc(Nc2ncc(-c3cc(F)cc(F)c3)c3sc(C)nc23)n1 group_label="interval 2"
smiles_string=CCOC(=O)N1CC/C(=C\C#Cc2cc(C#N)ccn2)C1(C)C group_label="interval 2"
smiles_string=Cc1nc(C#Cc2cccc(Cl)c2)cn1Cc1ccccn1 group_label="interval 2"
smiles_string=Cc1ccc(-n2cc(C#Cc3ccnc(Cl)c3)nc2C)nc1 group_label="interval 2"
smiles_string=Cc1cccc(C#Cc2cn(-c3ccn(CCO)c(=O)c3)c(C)n2)c1 group_label="interval 1"
smiles_string=CCOC(=O)N1CC/C(=C\C#Cc2cc(C#N)ccn2)C(C)(C)C1 group_label="interval 3"
smiles_string=Cc1csc(NC(=O)c2nc(C)cc(C#N)c2C)n1 group_label="interval 2"
smiles_string=CCOC(=O)N1CC/C(=C\C#Cc2cccc(C)n2)C(C)(C)C1 group_label="interval 3"
smiles_string=Cc1nc(C#Cc2cccc(Cl)c2)cn1-c1cc[nH]c(=O)c1 group_label="interval 2"
smiles_string=Cc1nc(C#Cc2ccnc(Cl)c2)c(C)n1-c1cccc(C(F)(F)F)n1 group_label="interval 2"
smiles_string=Cc1csc(NC(=O)c2nc(C)ccc2Nc2cccnc2)n1 group_label="interval 2"
smiles_string=Cc1nc(C#Cc2cccc(Cl)c2)c(C)n1-c1ccn(CCO)c(=O)c1 group_label="interval 1"
smiles_string=Cc1ccc(Nc2cccnc2)c(C(=O)Nc2ccn(C)n2)n1 group_label="interval 2"
smiles_string=Cc1cc(-n2c(C)nc(C#Cc3ccnc(Cl)c3)c2C)ccc1OC(F)(F)F group_label="interval 3"
smiles_string=Cc1cc(C#Cc2cn(-c3cccc(C(F)(F)F)c3)c(C)n2)ccn1 group_label="interval 2"
smiles_string=Cc1nc(C#Cc2ccnc(Cl)c2)c(CO)n1-c1ccc(F)cc1 group_label="interval 1"

---

Assembled from different publications: pKi for Metabotropic glutamate receptor 5 (Homo sapiens, UniProt P41594).
pKi: −log10 of the molar value.
Property Name: pKi

smiles_string=Cc1cc(C#N)cc(C(=O)Nc2ccc(F)c(F)c2)n1 property_name=pKi test_value=6.93
smiles_string=Cc1ccc(Nc2ncc(-c3cncc(F)c3)c3sc(C)nc23)nc1 property_name=pKi test_value=7.06
smiles_string=Cc1cccc(C#Cc2cn(-c3cnn(C)c(=O)c3)c(C)n2)c1 property_name=pKi test_value=7.28
smiles_string=Cc1nc(C#Cc2ccnc(Cl)c2)cn1-c1cnn(C)c(=O)c1 property_name=pKi test_value=6.42
smiles_string=O=C(c1cnc(C#Cc2ccccc2)s1)N1CCC(F)CC1 property_name=pKi test_value=6.72
smiles_string=Cc1csc(NC(=O)c2ncsc2Nc2cccc(C#N)c2)n1 property_name=pKi test_value=7.72
smiles_string=Cc1cc(NC(=O)c2nc(C)cnc2Nc2cncc(Cl)c2)ccn1 property_name=pKi test_value=5.79
smiles_string=CCOC(=O)N1CC/C(=C\C#Cc2cccc(CC#N)c2)C(C)(C)C1 property_name=pKi test_value=8.67

---

Assembled from different publications: Ki for Metabotropic glutamate receptor 5 (Homo sapiens, UniProt P41594).
Property Name: Ki

smiles_string=Cc1cccc(C#Cc2cn(-c3ccn(C)c(=O)c3)c(C)n2)c1 property_name=Ki test_value="42 nM"
smiles_string=Cc1nccc(NC(=O)c2nc(C)sc2Nc2cccc(C(N)=O)c2)n1 property_name=Ki test_value="40 nM"
smiles_string=Cc1cc(C#N)c(C)c(C(=O)Nc2ccc(F)cn2)n1 property_name=Ki test_value="31 nM"
smiles_string=Cc1ccc(NC(=O)c2cc(C#N)cc(C)n2)nc1 property_name=Ki test_value="11 nM"

---

Assembled from different publications: pKi for Metabotropic glutamate receptor 5 (Homo sapiens, UniProt P41594).
pKi: −log10 of the molar value.
Property Name: pKi

smiles_string=CCn1ccc(-n2cc(C#Cc3cccc(C)c3)nc2C)cc1=O test_value=7.12
smiles_string=Cc1cccc(C#Cc2nc(C)n(-c3cc(=O)n(C)cn3)c2C)c1 test_value=7.13
smiles_string=Cc1cc(C(=O)N2CC/C(=C\C#Cc3cccc(CO)c3)C(C)(C)C2)c(C)o1 test_value=6.49
smiles_string=Cc1cccc(C#Cc2cn(-c3cc[nH]c(=O)c3)c(C)n2)c1 test_value=6.95
smiles_string=CCN1N(c2ccc(C#Cc3ccccc3)cn2)C(=O)CC1(C)C test_value=7.27
smiles_string=CC1(C)CN(C(=O)c2cccc(Cl)c2)CC/C1=C\C#Cc1cccc(C#N)c1 test_value=8.80
smiles_string=CC1(C)CN(C(=O)c2cccc(Cl)c2)CC/C1=C\C#Cc1cccc(O)c1 test_value=8.13
smiles_string=Cc1nc(C#Cc2cccc(C#N)c2)cn1Cc1cncc(Cl)c1 test_value=7.03
smiles_string=Cc1nc(C#Cc2ccnc(Cl)c2)cn1-c1cncc(F)c1 test_value=7.20
smiles_string=COCCn1ncc(-n2cc(C#Cc3cccc(Cl)c3)nc2C)cc1=O test_value=7.03
smiles_string=Cc1cc(C#N)cc(C(=O)Nc2ccc(F)cn2)n1 test_value=8.22

---

pKi: −log10 of the molar value.
Assembled from different publications: pKi for Metabotropic glutamate receptor 5 (Homo sapiens, UniProt P41594).
Property Name: pKi

smiles_string=Cc1cc(C#N)c(C)c(C(=O)Nc2ccn(C)n2)n1 target_desc="Metabotropic glutamate receptor 5 (Homo sapiens, UniProt P41594)" property_name=pKi test_value=6.84
smiles_string=Cc1cccc(C#Cc2nc(C)n(-c3ccn(C)c(=O)c3)c2C)c1 target_desc="Metabotropic glutamate receptor 5 (Homo sapiens, UniProt P41594)" property_name=pKi test_value=7.21
smiles_string=CC1CCN(C(=O)c2cnc(C#Cc3ccccc3)s2)CC1 target_desc="Metabotropic glutamate receptor 5 (Homo sapiens, UniProt P41594)" property_name=pKi test_value=6.87
smiles_string=Cc1cc(C#N)c(C)c(C(=O)Nc2ccc(Cl)cn2)n1 target_desc="Metabotropic glutamate receptor 5 (Homo sapiens, UniProt P41594)" property_name=pKi test_value=7.01
smiles_string=Cc1ccc(-n2cc(C#Cc3ccnc(Cl)c3)nc2C)cc1 target_desc="Metabotropic glutamate receptor 5 (Homo sapiens, UniProt P41594)" property_name=pKi test_value=7.82
smiles_string=Cc1nc(C#Cc2ccnc(Cl)c2)cn1-c1cccc(O)n1 target_desc="Metabotropic glutamate receptor 5 (Homo sapiens, UniProt P41594)" property_name=pKi test_value=6.84
